Read-out: Urokinase-type plasminogen activator receptor (uPAR), PLAUR (gene 5329)
assay_comment: BSK_4H_uPAR: BioMAP Diversity Plus: 4H Assay for Urokinase-type plasminogen activator receptor (uPAR) Biomarker Activity (AID 2283030)
study_conditions: primary human endothelial cells (HUVEC); actives raise or lower the signal
The source made the active and inactive calls. Rule for the calls: active = hit-call score of the fitted dose curve at least 0.9, where 1 is the maximum; inactive = score below 0.9.
Outcome codes: yes (active), no (inactive)

>>> class_label("O=C1CCCO1")
"no"
>>> class_label("Cc1ccc([N+](=O)[O-])cc1")
"no"
>>> class_label("ClC1=C(Cl)[C@]2(Cl)[C@H]3[C@H]([C@@H]4C=C[C@H]3C4)[C@@]1(Cl)C2(Cl)Cl")
"yes"
>>> class_label("CN(C)[C@@H]1C(=O)C(C(N)=O)=C(O)[C@@]2(O)C(=O)C3=C(O)c4c(O)cccc4[C@@](C)(O)[C@H]3C[C@@H]12")
"no"
>>> class_label("CC(C)N(Cc1ccccc1)C(=O)C(C)(C)C")
"no"
>>> class_label("CCCCCOC(=O)c1ccccc1C(=O)OCCCCC")
"no"
>>> class_label("Cn1cc(-c2ccccc2)c(=O)c(-c2cccc(C(F)(F)F)c2)c1")
"no"
>>> class_label("CCCCCCCCn1sccc1=O")
"yes"
>>> class_label("Clc1ccc(C(c2ccc(Cl)cc2)C(Cl)(Cl)Cl)cc1")
"yes"
>>> class_label("Nc1ccc(N=Nc2ccccc2)cc1")
"no"
>>> class_label("Clc1ccccc1Cl")
"no"
>>> class_label("Clc1ccc(C(c2ccc(Cl)cc2)C(Cl)Cl)cc1")
"yes"
>>> class_label("ClCCOCCCl")
"no"
>>> class_label("CCCCC(CC)COC(=O)c1ccc(C(=O)OCC(CC)CCCC)c(C(=O)OCC(CC)CCCC)c1 (centres undefined)")
"no"
>>> class_label("Cc1cccc(N)c1N")
"no"
>>> class_label("Cc1ccc(N=C=O)cc1N=C=O")
"no"
>>> class_label("CC(C)(OOC(C)(C)c1ccccc1)c1ccccc1")
"no"
>>> class_label("[As]#[In]")
"no"
>>> class_label("CC(O)CCO (centres undefined)")
"no"
>>> class_label("[Cl-].[Cl-].[Hg+2]")
"yes"
>>> class_label("OCCCl")
"no"
>>> class_label("Nc1ccc(Oc2ccc(N)cc2)cc1")
"no"
>>> class_label("CCN(CC)N=O")
"no"
>>> class_label("N#CC(Br)Br")
"no"
>>> class_label("Nc1ccc(Cc2ccc(N)cc2)cc1")
"no"
>>> class_label("CCCCCCCCOC(=O)c1ccc(C(=O)OCCCCCCCC)c(C(=O)OCCCCCCCC)c1")
"no"
>>> class_label("CCC[CH2][Sn]([Cl])([CH2]CCC)[CH2]CCC")
"yes"
>>> class_label("O=Cc1ccco1")
"no"
>>> class_label("CNC(=O)Oc1cccc2c1OC(C)(C)C2")
"no"

* * *

Read-out: Collagen III, COL3A1 (gene 1281)
assay_comment: BSK_hDFCGF_CollagenIII: BioMAP Diversity Plus: hDFCGF Assay for Collagen III Biomarker Activity (AID 2283056)
study_conditions: primary human foreskin fibroblasts; actives raise or lower the signal
Calls of active or inactive are those of the source. The calls were made as follows: active = hit-call score of the fitted dose curve at least 0.9, where 1 is the maximum; inactive = score below 0.9.
Outcome codes: yes for active, no for inactive

>>> class_label("CCCCCCCCOC(=O)c1ccc(C(=O)OCCCCCCCC)c(C(=O)OCCCCCCCC)c1")
"no"
>>> class_label("Nc1ccc(N=Nc2ccccc2)cc1")
"yes"
>>> class_label("OCCCl")
"no"
>>> class_label("O=[N+]([O-])c1ccc(Oc2ccc(Cl)cc2Cl)cc1")
"yes"
>>> class_label("c1ccc(NNc2ccccc2)cc1")
"no"
>>> class_label("Cc1ccc(N=C=O)cc1N=C=O")
"no"
>>> class_label("Brc1ccc(Oc2ccccc2)cc1")
"no"
>>> class_label("CCC[CH2][Sn]([Cl])([CH2]CCC)[CH2]CCC")
"yes"
>>> class_label("O=Cc1ccco1")
"no"
>>> class_label("CCCCCCCCn1sccc1=O")
"yes"
>>> class_label("Oc1ccccc1Cl")
"no"
>>> class_label("Cn1cc(-c2ccccc2)c(=O)c(-c2cccc(C(F)(F)F)c2)c1")
"no"
>>> class_label("CCCSC(=O)N(CCC)CCC")
"no"
>>> class_label("COC(=O)Nc1nc2ccccc2[nH]1")
"no"
>>> class_label("OCCCBr")
"no"

src = PubChem BioAssay (EPA / NIEHS)
